- Test system: HeLa cells
- Method Description: Cell cycle assay in HeLa cells
- Format: cell-based, human
- Settings: HeLa cells, 50 nM, 48 hours; percentage of cells in phase, average of replicates
In the oligonucleotide strings, read from the 5' end, every base follows the letter of its sugar. An asterisk marks phosphorothioate; unmarked linkages are phosphodiester. Other units and linkages are bracketed, terminal groups are in braces. A string of capitals states the bases alone. e = 2'-O-(2-methoxyethyl) (MOE); [5mC] = 5-methylcytosine; d = 2'-deoxy (DNA)
Metric: % cells in cell cycle phase: G1 (%)
Answers are plain numbers, in %.

INSERT INTO results (substance, assayed_target, reported_value) VALUES
  ('327905 (antisense e[5mC]*eA*eG*eA*e[5mC]*eT*e[5mC]*e[5mC]*eG*eG*eT*eG*eG*eA*eA*eT*eG*eA*eA*eG*eG*eA) [compound 327905]', 'HeLa cells', 50),
  ('328403 (antisense eA*eG*eG*e[5mC]*e[5mC]*dT*dA*dT*dT*d[5mC]*d[5mC]*dT*dG*dT*dA*eG*e[5mC]*eA*eA*eA) [compound 328403]', 'HeLa cells', 53),
  ('327902 (antisense eG*eG*e[5mC]*eT*eG*eT*e[5mC]*eA*eA*eT*eT*e[5mC]*eA*eT*eA*eG*eG*eT*e[5mC]*eA*eG) [compound 327902]', 'HeLa cells', 51);

Now turn to the next substance.
Fill in reported % cells in cell cycle phase: G1 for this entry: 328383 (eA*eG*eA*eG*eG*dG*dG*dA*dG*dA*d[5mC]*dG*dA*dG*dA*eG*e[5mC]*eA*e[5mC]*eT) [compound 328383]
56

====

- Test system: IL-12 mRNA
- Method Description: IL-12 mRNA in LPS-activated primary murine macrophages
- Assay type: cell-based, mouse
- Settings: 300 nM oligomeric compound and LPS, no IFN-gamma pretreatment; single experiment; normalized to LPS-treated cells without oligomeric compound
In the oligonucleotide strings, read from the 5' end, every base follows the letter of its sugar. An asterisk marks phosphorothioate; unmarked linkages are phosphodiester. Other units and linkages are bracketed, terminal groups are in braces. A string of capitals states the bases alone. e = 2'-O-(2-methoxyethyl) (MOE); [5mC] = 5-methylcytosine; d = 2'-deoxy (DNA)
Metric: IL-12 mRNA expression, −IFN % UTC (% UTC)
Give bare numbers, in % UTC.

INSERT INTO results (substance, units_text, reported_value) VALUES
  ('327899 (antisense e[5mC]*eA*eG*eT*eG*eA*eA*eT*eT*e[5mC]*eT*eA*e[5mC]*e[5mC]*eA*eG*eT*eG*e[5mC]*e[5mC]*eA*eT*eA) [compound 327899]', '% UTC', 164),
  ('327923 (antisense eG*eA*eA*eA*eG*eA*eG*eA*e[5mC]*e[5mC]*eG*eG*eT*eT*e[5mC]*eA*e[5mC]*eT*eG*eT*eG*eA) [compound 327923]', '% UTC', 269),
  ('327935 (antisense e[5mC]*eT*eA*e[5mC]*e[5mC]*eT*eG*e[5mC]*eA*e[5mC]*eT*eA*eT*eA*eA*eG*e[5mC]*eA*e[5mC]*eT*eT*eT*eA) [compound 327935]', '% UTC', 254);

// batch mode: one IL-12 mRNA expression, −IFN % UTC value per listed entry
1. 327927 (antisense eT*eG*eT*eA*eA*eA*e[5mC]*e[5mC]*eA*eT*eG*eA*eT*eG*eT*eG*e[5mC]*eT*eG*e[5mC]*eT*eA) [compound 327927]
2. 341815 (antisense CAUCGUUACCAGACAGUGUUA; all 2'-MOE, all phosphorothioate, methylation of C and T or U not given here) [compound 341815]
3. 327931 (antisense eA*eA*e[5mC]*e[5mC]*eA*eT*eA*e[5mC]*eA*eA*e[5mC]*e[5mC]*eT*eA*e[5mC]*eT*eA*e[5mC]*e[5mC]*eT*e[5mC]*eA) [compound 327931]
4. 327971 (antisense eG*eG*eA*eA*eA*eT*e[5mC]*e[5mC]*e[5mC]*eT*eG*eG*e[5mC]*eA*eA*eT*eG*eT*eG*eA*eT) [compound 327971]
5. 341800 (antisense AAGCCCAAAAGGAGAAUUCUUUG; all 2'-MOE, all phosphorothioate, methylation of C and T or U not given here) [compound 341800]

[164, 190, 105, 146, 180]

Would you mind listing IL-12 mRNA expression, −IFN % UTC for each of the following substances?
1. 328129 (antisense eA*eG*e[5mC]*e[5mC]*eT*e[5mC]*e[5mC]*eT*eT*e[5mC]*eT*eT*e[5mC]*eT*e[5mC]*eG*eT*eA*e[5mC]*eT*eA) [compound 328129]
2. 328123 (antisense eT*eT*eA*e[5mC]*eA*eG*eG*eT*eG*e[5mC]*eT*eG*e[5mC]*eA*eA*e[5mC]*eT*eG*eG*eA*eA) [compound 328123]
3. 341793 (antisense CCAUAAAGUAGGAAACACUACA; all 2'-MOE, all phosphorothioate, methylation of C and T or U not given here) [compound 341793]
4. 341790 (antisense CGAAGGCAACACGGAUAACCUA; all 2'-MOE, all phosphorothioate, methylation of C and T or U not given here) [compound 341790]
5. 327920 (antisense eG*eA*eG*eA*e[5mC]*e[5mC]*e[5mC]*eA*eG*eT*eA*eG*e[5mC]*e[5mC]*eA*eG*eA*eT*eG*eT*eA*eG*e[5mC]*eT) [compound 327920]
6. 328137 (eG*eT*eA*eA*eG*e[5mC]*eG*e[5mC]*eA*eG*e[5mC]*eT*e[5mC]*e[5mC]*eA*e[5mC]*eA*eG*eG*e[5mC]*eT; anti-miR) [compound 328137]
7. 328105 (antisense e[5mC]*e[5mC]*eT*e[5mC]*eA*eA*eT*eT*eA*eT*eT*eG*eG*eA*eA*eA*eT*e[5mC]*eA*e[5mC]*eA) [compound 328105]

87
176
202
318
171
213
108

Parameters: items (list). Returns: IL-12 mRNA expression, −IFN % UTC for each item.
1. 341811 (antisense UCCACAUGGAGUUGCUGUUACA; all 2'-MOE, all phosphorothioate, methylation of C and T or U not given here) [compound 341811]
2. 327924 (antisense eG*e[5mC]*eA*eA*eG*e[5mC]*e[5mC]*e[5mC]*eA*eG*eA*e[5mC]*e[5mC]*eG*e[5mC]*eA*eA*eA*eA*eA*eG) [compound 327924]
3. 327967 (antisense eA*e[5mC]*eT*eG*eT*eA*e[5mC]*eA*eA*eA*e[5mC]*eT*eA*e[5mC]*eT*eA*e[5mC]*e[5mC]*eT*e[5mC]*eA) [compound 327967]

1: 154; 2: 171; 3: 203

# return IL-12 mRNA expression, −IFN % UTC for each item in the list
1. 327919 (antisense eG*eA*eA*eA*e[5mC]*e[5mC]*e[5mC]*eA*eG*e[5mC]*eA*eG*eA*e[5mC]*eA*eA*eT*eG*eT*eA*eG*e[5mC]*eT) [compound 327919]
2. 129690 (antisense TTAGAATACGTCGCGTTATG; sugars from the 5' end e5 d10 e5, all phosphorothioate, methylation of C not given here) [compound 129690]

179
73

====

- System: adipocytes
- Method Description: Triglyceride accumulation assay in adipocytes
- Format: cell-based, human
- Settings: adipocytes, 250 nM oligomeric compound, relative to control (1.0); Table 15
In the oligonucleotide strings, read from the 5' end, every base follows the letter of its sugar. An asterisk marks phosphorothioate; unmarked linkages are phosphodiester. Other units and linkages are bracketed, terminal groups are in braces. A string of capitals states the bases alone. e = 2'-O-(2-methoxyethyl) (MOE); [5mC] = 5-methylcytosine
Metric: TG (triglyceride accumulation)
One number for each entry.

Below, each entry is followed by its recorded TG (triglyceride accumulation) result.
INSERT INTO measurements (substance, assayed_target, reported_value) VALUES
  ('327925 (antisense eT*eA*eG*e[5mC]*eT*eG*eG*eT*eT*eG*eA*eA*eG*eG*eG*eG*eA*e[5mC]*e[5mC]*eA*eA) [compound 327925]', 'adipocytes', 0.72),
  ('327889 (antisense eG*eT*eG*eG*eT*eA*eA*eT*e[5mC]*e[5mC]*e[5mC]*eT*eG*eG*e[5mC]*eA*eA*eT*eG*eT*eG*eA*eT) [compound 327889]', 'adipocytes', 0.47);

Now, please, on to the next substance.
Give a short answer stating reported TG (triglyceride accumulation) for 327905 (antisense e[5mC]*eA*eG*eA*e[5mC]*eT*e[5mC]*e[5mC]*eG*eG*eT*eG*eG*eA*eA*eT*eG*eA*eA*eG*eG*eA) [compound 327905] .
0.69
